Experiment: Example 18 Part 2: multiple dose PK (20 mg QID) of 3,4-DAP and 3-N-acetyl metabolite in slow and fast acetylators
Assay type: in vivo, human
Conditions: both sexes, human, plasma, oral, 20 mg, Day 3, Dose 1, slow acetylators, 20 mg QID; read-out: Mean Cmax
quantity: Cmax

Exercise: Given the compound Nc1ccncc1N , write its reported Cmax.
Key: 81.2 ng/mL

----------
Assay: Example 18 Part 2: multiple dose PK (20 mg QID) of 3,4-DAP and 3-N-acetyl metabolite in slow and fast acetylators
Type: in vivo, human
Details: both sexes, human, plasma, oral, 20 mg, Day 3, Dose 1-4, slow acetylators, 20 mg QID; read-out: Mean AUC0-24
quantity: AUC(0-t)

Exercise: Please indicate AUC(0-t) recorded for Nc1ccncc1N [3,4-DAP, 3,4-diaminopyridine]
Key: 701 ng·h/mL
